# Tested on: PfIESI-1 RRM domain (Plasmodium falciparum ortholog aa 875-1232, GST fusion)
# TEST_DETAILS: RBNS R-value (6-mer enrichment in protein-bound RNA vs input library) (ratio); higher = stronger binding preference; the methods of the paper give 50 / 100 / 500 nM protein instead
# RUN_PARAMETERS: protein concentration: 1000 nM
Over roughly 4,100 sequences, “RBNS R-value (6-mer enrichment in protein-bound RNA vs input library)” has its median near 0.99; the highest 2% begin near 1.4. The full list was thinned out, with the highest values kept by preference.
RBNS R-value listing for selected sequences.
Form rule: numeric answer, no unit written next to it.

Example entries and their recorded answers appear below.
| CHAIN_SEQUENCE | MEASURE | RESULT |
| --- | --- | --- |
| GCCUGC | RBNS R-value | 1.06 |
| CGAUUA | RBNS R-value | 1.04 |
| UAUGUC | RBNS R-value | 0.81 |

Lookup: State the recorded RBNS R-value for this entry: "CUCAGG"
Found: 1.09

Lookup: Ok, now "UGAUUA"
Found: 1.94
